test: qHTS assay to identify small molecule agonists of the peroxisome proliferator-activated receptor delta (PPARd) signaling pathway - cell viability counter screen (AID 743211); conditions: PPARd-bla HEK293H viability, CellTiter-Glo luminescence, 17 h; series mostly up to 62.6 µM; also: nearly all actives have a fitted effect of over 55% in size
Results filed as inconclusive are left out. Activity calls are given as the source filed them. Calls follow the shape of the dose curve; as a rule, active = well fitted cell-killing curve with a large enough effect in the repeat runs; inconclusive = weak or mixed curves; inactive = no such curve, though single readings can be large or run the other way.
Labels: 1 (active), -1 (inactive)

1) CCCCNS(=O)(=O)c1ccc(C)cc1: -1
2) Cc1c(C)c2c(c(C)c1O)CC[C@@](C)(CCC[C@H](C)CCC[C@H](C)CCCC(C)C)O2: -1
3) CC(=O)Oc1cc2c(s1)CCN(C(C(=O)C1CC1)c1ccccc1F)C2 (stereo unspecified): -1
4) [Cl][Pt-2]([Cl])([Cl])[Cl]: -1
5) FC(F)(F)c1cccc(Cl)c1: -1
6) Nc1ccc(NCCO)c([N+](=O)[O-])c1: -1
7) C1CCC(SSC2CCCCC2)CC1: -1
8) CCCC(=O)OCCc1ccccc1: -1
9) CCN(CC)C(=O)c1cc(S(=O)(=O)Cc2ccccc2)c(N2CCC(c3ccccc3)CC2)cc1N(CC)CCN(C)C: 1
10) CC(C)(c1cc(Br)c(OCC(Br)CBr)c(Br)c1)c1cc(Br)c(OCC(Br)CBr)c(Br)c1 (stereo unspecified): -1
11) CC(=O)OCC=C(C)C: -1
12) O[C@@H]([C@H](O)[C@H](O)CBr)[C@H](O)CBr: -1
13) CCC(=O)C(=O)CC: -1
14) Cc1c(F)c(N2CCNC(C)C2)cc2c1c(=O)c(C(=O)O)cn2C1CC1 (stereo unspecified): -1
15) CCCC(=O)OC(C)(C)Cc1ccccc1: -1
16) CC1(C)[C@@H](O)CC[C@]2(C)[C@H]3C(=O)C=C4[C@@H]5C[C@@](C)(C(=O)O)CC[C@]5(C)CC[C@@]4(C)[C@]3(C)CC[C@@H]12: 1
17) OC[C@@H](O)[C@@H](O)CO: -1
18) Cc1cc(-n2nc3ccc(Cl)cc3n2)c(O)c(C(C)(C)C)c1: -1
19) CCn1c2ccccc2c2cc([N+](=O)[O-])ccc21: -1
20) Cc1c(N)cccc1C(F)(F)F: -1
21) C=Cc1cccc(C)c1: -1
